# Procedure text: recombinant UMI read abundance after kanamycin selection (control-corrected) (log10(CPM+1)); higher = more efficient recombination; extreme values may be limits of the assay; sequences stand for … in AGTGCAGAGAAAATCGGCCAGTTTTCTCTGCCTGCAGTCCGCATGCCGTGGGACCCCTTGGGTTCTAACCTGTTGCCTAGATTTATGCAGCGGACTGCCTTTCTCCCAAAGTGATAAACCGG…AGGTTGGTTTCACT; site = the 11-nt donor;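 also: IS621 bridge recombinase in Escherichia coli cells against a fixed T5 target plasmid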
# recombinant UMI read abundance (log10) >= 0.02 gives 1.0, anything below gives 0.0

- Sequence text: "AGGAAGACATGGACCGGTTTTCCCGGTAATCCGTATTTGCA (site AGGAAGACTCG)"
  Answer label: 1.0
- Sequence text: "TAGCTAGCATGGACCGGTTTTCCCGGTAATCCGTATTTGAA (site TAACTAGCTTT)"
  Answer label: 1.0
- Sequence text: "GCCAAAACATGGACCGGTTTTCCCGGTAATCCGTATTTGCT (site GCTAAAACTAG)"
  Answer label: 0.0
- Sequence text: "AGCTCAGCATGGACCGGTTTTCCCGGTAATCCGTATTTGCG (site AGCTCAGCTCC)"
  Answer label: 0.0
- Sequence text: "TGGAATCCATGGACCGGTTTTCCCGGTAATCCGTATTTGTT (site AGGAATCCTAA)"
  Answer label: 0.0
- Sequence text: "GATTATGCATGGACCGGTTTTCCCGGTAATCCGTATTTGGA (site GATTATGCTTC)"
  Answer label: 1.0

[in] Is it the case that TGTTCCCCATGGACCGGTTTTCCCGGTAATCCGTATTTGTC (site TGTTCCCCTGA) has recombinant UMI read abundance (log10) reaching or exceeding 0.02?
[out] 1.0

[in] Does the reported recombinant UMI read abundance (log10) for TCCAATTCATGGACCGGTTTTCCCGGTAATCCGTATTTGGC (site TCCAATTCTGC) fall at or above the 0.02 mark?
[out] 0.0

[in] Please check the record ATATATCCATGGACCGGTTTTCCCGGTAATCCGTATTTGGT (site ATATATCCTAC) and state if its recombinant UMI read abundance (log10) is at or above 0.02.
[out] 1.0

[in] Identify whether the reported recombinant UMI read abundance (log10) of the following sequence is 0.02 or greater: CGCCCTCCATGGACCGGTTTTCCCGGTAATCCGTATTTGAT (site CGCCCTCCTAT)
[out] 1.0

[in] Does the sequence TCACGTCCATGGACCGGTTTTCCCGGTAATCCGTATTTGGC (site TCACGTCCTGC) have recorded recombinant UMI read abundance (log10) that is 0.02 or more?
[out] 0.0

[in] recombinant UMI read abundance (log10) >= 0.02 for CACGGTCCATGGACCGGTTTTCCCGGTAATCCGTATTTGAT (site CACGGTCCTAT) ?
[out] 1.0

[in] Kindly determine if recombinant UMI read abundance (log10) recorded for CAGCATGCATGGACCGGTTTTCCCGGTAATCCGTATTTGAA (site CAGCATGCTTT) is above or exactly 0.02.
[out] 1.0

[in] Is the recorded value of recombinant UMI read abundance (log10) equal to or greater than 0.02 for this sequence? TGAGAGGCATGGACCGGTTTTCCCGGTAATCCGTATTTGTA (site TGAGAGGCTTA)
[out] 1.0

Numbers sourced from the supplement of paper PMC11208160.
